Target Entity: Aurora kinase A (Homo sapiens, UniProt O14965)
Sequence (O14965 whole entry): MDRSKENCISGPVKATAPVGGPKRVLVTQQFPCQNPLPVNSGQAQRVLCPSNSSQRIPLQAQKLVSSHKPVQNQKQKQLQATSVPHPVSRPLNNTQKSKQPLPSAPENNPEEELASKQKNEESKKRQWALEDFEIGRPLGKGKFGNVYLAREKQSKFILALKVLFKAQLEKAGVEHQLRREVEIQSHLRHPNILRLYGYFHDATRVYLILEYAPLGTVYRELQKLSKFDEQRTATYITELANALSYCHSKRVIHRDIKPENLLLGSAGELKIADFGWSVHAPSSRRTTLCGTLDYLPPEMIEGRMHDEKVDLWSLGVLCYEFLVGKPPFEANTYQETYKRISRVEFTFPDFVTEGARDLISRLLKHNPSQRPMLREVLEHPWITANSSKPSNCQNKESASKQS
Run Description: Inhibition of Aurora A (unknown origin) expressed in Escherichia coli using peptide substrate incubated for 1 hrs in presence of ATP by fluorescence microplate reader
Observed Property: pIC50
Answer as the number alone; pIC50 is minus log10 of concentration in mol/L.

Ask: Given CS(=O)(=O)N1CCc2cc(Nc3ncc(C(F)(F)F)c(NCCCN)n3)ccc2C1 , respond with its pIC50.
Result: 5.73

###

Target Entity: Interleukin-1 receptor-associated kinase 4 (Homo sapiens, UniProt Q9NWZ3)
Sequence (Q9NWZ3 whole entry): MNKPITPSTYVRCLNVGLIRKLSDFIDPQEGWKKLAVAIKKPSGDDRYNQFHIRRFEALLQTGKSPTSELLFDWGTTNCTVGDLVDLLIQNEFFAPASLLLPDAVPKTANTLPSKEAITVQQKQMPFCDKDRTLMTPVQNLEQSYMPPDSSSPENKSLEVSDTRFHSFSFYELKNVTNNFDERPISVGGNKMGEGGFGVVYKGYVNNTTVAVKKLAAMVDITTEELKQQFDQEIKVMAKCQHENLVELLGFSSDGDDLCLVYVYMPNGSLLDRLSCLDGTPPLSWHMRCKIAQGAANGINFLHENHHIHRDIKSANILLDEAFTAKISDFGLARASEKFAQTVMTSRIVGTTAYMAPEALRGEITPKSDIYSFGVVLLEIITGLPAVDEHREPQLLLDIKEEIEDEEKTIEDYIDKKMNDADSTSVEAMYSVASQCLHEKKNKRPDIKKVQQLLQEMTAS
Observed Property: pIC50
Answer as the number alone; pIC50 is minus log10 of concentration in mol/L.

Ask: Given CS(=O)(=O)N1CCc2cc(Nc3ncc(C(F)(F)F)c(NCCCN)n3)ccc2C1 , respond with its pIC50.
Result: 6.06
